target-under-test: DLG2_3, Q15700
experiment-summary: holdup assay
Design: key: below the threshold = too weak to quantify, mostly under pKd 3.1 to 4
conditions-used: plain residues with an end cap or a label only (N-terminal biotin on a linker: ado-ado)
pKd values for the binders below.

- binder: "TNSRHGETTV [FZD2, Q14332]"
  pKd: 4.38
- binder: "NVYGIESVKI [GRIA2, P42262]"
  pKd: 3.81
- binder: "NTLNRKTTPV [CACNG8, Q8WXS5]"
  pKd: 4.9
- binder: "QSGLYESEEL [MYOT, Q9UBF9]"
  pKd: 3.88
- binder: "LESTTVGTSV [KARS1, Q15046]"
  pKd: 4.23
- binder: "PYPTADHMLA [JUP, P14923]"
  pKd: 3.77

Every entry's value here was drawn from paper PMC9482650.
